// values below are reported Kd
Molecular target: T1, ZTNF4 (Homo sapiens (Human), UniProt Q9Y275 134-285, limits assumed, radioiodinated with 125I (Iodobeads) in the binding assays; unlabeled ZTNF4 used to determine nonspecific binding)
T1 construct: also called BAFF
T1 sequence (Q9Y275 134-285 limits assumed): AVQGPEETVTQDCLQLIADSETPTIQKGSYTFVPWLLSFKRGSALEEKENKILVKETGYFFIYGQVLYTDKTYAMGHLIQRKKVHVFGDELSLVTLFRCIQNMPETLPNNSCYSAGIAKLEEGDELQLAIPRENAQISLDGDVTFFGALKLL
Test: solution binding: 0.05 nM TACI-Fc with 0.4 pM to 1.5 nM 125I-ZTNF4, Pansorbin precipitation
Supply the numeric figure in nM, leaving out any unit text.

Study these solved cases before continuing.
TACI (d1-29, d107-154)-Fc5 (Fc fusion) AMRSCPEEQYWDPLLGTCMSCKTICNHQSQRTCAAFCRSLSCRKEQGKFYDHLLRDCISCASICGQHPKQCAYFCENEPKSSDKTHTCPPCPAPEAEGAPSVFLFPPKPKDTLMISRTPEVTCVVVDVSHEDPEVKFNWYVDGVEVHNAKTKPREEQYNSTYRVVSVLTVLHQDWLNGKEYKCKVSNKALPSSIEKTISKAKGQPREPQVYTLPPSRDELTKNQVSLTCLVKGFYPSDIAVEWESNGQPENNYKTTPPVLDSDGSFFLYSKLTVDKSRWQQGNVFSCSVMHEALHNHYTQKSLSLSPGK ... 0.121
TACI (d1-29)-Fc5 (Fc fusion, Made in CHO DG44 cells) AMRSCPEEQYWDPLLGTCMSCKTICNHQSQRTCAAFCRSLSCRKEQGKFYDHLLRDCISCASICGQHPKQCAYFCENKLRSPVNLPPELRRQRSGEVENNSDNSGRYQGLEHRGSEASPALPGLKEPKSSDKTHTCPPCPAPEAEGAPSVFLFPPKPKDTLMISRTPEVTCVVVDVSHEDPEVKFNWYVDGVEVHNAKTKPREEQYNSTYRVVSVLTVLHQDWLNGKEYKCKVSNKALPSSIEKTISKAKGQPREPQVYTLPPSRDELTKNQVSLTCLVKGFYPSDIAVEWESNGQPENNYKTTPPVLDSDGSFFLYSKLTVDKSRWQQGNVFSCSVMHEALHNHYTQKSLSLSPGK ... 0.134
TACI (d1-29, d120-154)-Fc5 (Fc fusion) AMRSCPEEQYWDPLLGTCMSCKTICNHQSQRTCAAFCRSLSCRKEQGKFYDHLLRDCISCASICGQHPKQCAYFCENKLRSPVNLPPELREPKSSDKTHTCPPCPAPEAEGAPSVFLFPPKPKDTLMISRTPEVTCVVVDVSHEDPEVKFNWYVDGVEVHNAKTKPREEQYNSTYRVVSVLTVLHQDWLNGKEYKCKVSNKALPSSIEKTISKAKGQPREPQVYTLPPSRDELTKNQVSLTCLVKGFYPSDIAVEWESNGQPENNYKTTPPVLDSDGSFFLYSKLTVDKSRWQQGNVFSCSVMHEALHNHYTQKSLSLSPGK ... 0.092

INPUT: Consider the binder TACI (d1-29, d111-154)-Fc5 (Fc fusion) AMRSCPEEQYWDPLLGTCMSCKTICNHQSQRTCAAFCRSLSCRKEQGKFYDHLLRDCISCASICGQHPKQCAYFCENKLRSEPKSSDKTHTCPPCPAPEAEGAPSVFLFPPKPKDTLMISRTPEVTCVVVDVSHEDPEVKFNWYVDGVEVHNAKTKPREEQYNSTYRVVSVLTVLHQDWLNGKEYKCKVSNKALPSSIEKTISKAKGQPREPQVYTLPPSRDELTKNQVSLTCLVKGFYPSDIAVEWESNGQPENNYKTTPPVLDSDGSFFLYSKLTVDKSRWQQGNVFSCSVMHEALHNHYTQKSLSLSPGK . State its measured Kd.
OUTPUT: 0.115
